# Assay Protocol: Cytotoxicity assay (CellTiter-Glo, 72 h), SKOV-3
# Format: cell-based, human
# Assay Conditions: human, SKOV-3 cells (ovarian adenocarcinoma), conc 0.0488281 uM; raw replicate data; read-out: SKOV3 viability (%)
Measurement Type: viability at 72 h, 0.0488281 uM (%)
# unit: % | format: bare number

COC1CC2CCC(C)C(O)(O2)C(=O)C(=O)N2CCCCC2C(=O)OC(C(C)CC2CCC(O)C(OC)C2)CC(O)CC(=O)C(C)C=C(C)C(O)CC(=O)C(C)CC(C)C=CC=CC=C1C (centres unmarked) | 100

Moving on to another molecule below.
Which viability at 72 h, 0.0488281 uM is reported for this molecule? CO[C@H]1C[C@@H]2CC[C@@H](C)[C@@](O)(O2)C(=O)C(=O)N2CCCC[C@H]2C(=O)O[C@H]([C@H](C)C[C@@H]2CC[C@@H](O)[C@H](OC)C2)CC(=O)[C@H](C)/C=C(\C)[C@@H](O)CC(=O)[C@H](C)C[C@H](C)/C=C/C=C(C)/C=C/1C 96.1

---

# Assay Protocol: Cytotoxicity assay (CellTiter-Glo, 72 h), MESO-1
# Type: cell-based
# Assay Conditions: human, MESO-1 malignant pleural mesothelioma cells, conc 0.00305176 uM; raw replicate data; read-out: MESO1 viability (%)
Consider the cut-off 90%. If the recorded viability at 72 h, 0.00305176 uM is strictly smaller, the label is true (1); if not, the label is false (0).

Known results for compounds:
COC1CC2CCC(C)C(O)(O2)C(=O)C(=O)N2CCCCC2C(=O)OC(C(C)CC2CCC(O)C(OC)C2)CC(=O)C(C)C=C(C)C(O)CC(=O)C(C)C=C(C)C=CC=CC=C1C (stereo not drawn) [Compound 14] | false (0)
COC1CC2CCC(C)C(O)(O2)C(=O)C(=O)N2CCCCC2C(=O)OC(C(C)CC2CCC(O)C(OC)C2)CCC(C)C=C(C)C(O)C(OC)C(=O)C(C)CC(C)C=CC=CC=C1C (stereo not drawn) [Compound 16, 32-desketorapamycin] | true (1)
CO[C@H]1C[C@@H]2CC[C@@H](C)[C@@](O)(O2)C(=O)C(=O)N2CCCC[C@H]2C(=O)O[C@H]([C@H](C)C[C@@H]2CC[C@@H](O)[C@H](OC)C2)CC(=O)[C@H](C)/C=C(\C)[C@@H](O)CC(=O)[C@H](C)C[C@H](C)/C=C/C=C(C)/C=C/1C [Compound 2, 27-demethoxy-19-methyl rapamycin] | false (0)

Now for a further compound.
Report whether reported viability at 72 h, 0.00305176 uM is lower than 90% (strictly) for COC1CC2CCC(C)C(O)(O2)C(=O)C(=O)N2CCCCC2C(=O)OC(C(C)CC2CCC(O)C(OC)C2)CC(O)CC(=O)C(C)C=C(C)C(O)CC(=O)C(C)CC(C)C=CC=CC=C1C (stereo not drawn) [Compound 13] false (0)

---

Recorded viability at 72 h, 1.5625 uM for the following compounds
# Assay Protocol: Cytotoxicity assay (CellTiter-Glo, 72 h), SKOV-3
# Assay type: cell-based, human
# Assay Conditions: human, SKOV-3 ovarian adenocarcinoma cells, conc 1.5625 uM; raw replicate data; read-out: SKOV3 viability (%)
# unit: % | format: bare number

CO[C@H]1C[C@@H]2CC[C@@H](C)[C@@](O)(O2)C(=O)C(=O)N2CCCC[C@H]2C(=O)O[C@H]([C@H](C)C[C@@H]2CC[C@@H](O)[C@H](OC)C2)CC(=O)[C@H](C)/C=C(\C)[C@@H](O)[C@@H](OC)C(=O)[C@H](C)C[C@H](C)/C=C/C=C/C=C/1C [Compound 1, rapamycin, reference compound] | 58.8

Which viability at 72 h, 1.5625 uM is reported for this compound? CO[C@H]1C[C@@H]2CC[C@@H](C)[C@@](O)(O2)C(=O)C(=O)N2CCCC[C@H]2C(=O)O[C@H]([C@H](C)C[C@@H]2CC[C@@H](O)[C@H](OC)C2)CC(=O)[C@H](C)/C=C(\C)[C@@H](O)CC[C@H](C)/C=C/C=C/C=C/1C 62

---

Recorded viability at 72 h, 0.000762939 uM for the following compounds
# Assay Protocol: Cytotoxicity assay (CellTiter-Glo, 72 h), SKOV-3
# Format: cell-based, human
# Assay Conditions: human, SKOV-3 cells (ovarian adenocarcinoma), conc 0.000762939 uM; raw replicate data; read-out: SKOV3 viability (%)
# unit: % | format: bare number

COC1CC2CCC(C)C(O)(O2)C(=O)C(=O)N2CCCCC2C(=O)OC(C(C)CC2CCC(O)C(OC)C2)CC(O)CC(=O)C(C)C=C(C)C(O)CC(=O)C(C)CC(C)C=CC=CC=C1C (stereo not shown) [Compound 13] | 104
CO[C@H]1C[C@@H]2CC[C@@H](C)[C@@](O)(O2)C(=O)C(=O)N2CCCC[C@H]2C(=O)O[C@H]([C@H](C)C[C@@H]2CC[C@@H](O)[C@H](OC)C2)CC(=O)[C@H](C)/C=C(\C)[C@@H](O)CC(=O)[C@H](C)C[C@H](C)/C=C/C=C(C)/C=C/1C [Compound 2, 27-demethoxy-19-methyl rapamycin] | 98.5
CO[C@@H]1/C=C/C=C/[C@@H](C)C[C@@H](C)C(=O)C[C@H](O)/C(C)=C/[C@@H](C)C(=O)C[C@@H]([C@H](C)C[C@@H]2CC[C@@H](O)[C@H](OC)C2)OC(=O)[C@@H]2CCCCN2C(=O)C(=O)[C@]2(O)O[C@@H](CC[C@H]2C)C1 [Compound 9] | 101

Moving on to another compound below.
Which viability at 72 h, 0.000762939 uM is reported for this compound? COC1CC2CCC(C)C(O)(O2)C(=O)C(=O)N2CCCCC2C(=O)OC(C(C)CC2CCC(O)C(OC)C2)CC(=O)C(C)C=C(C)C(O)C(OC)C(=O)C(C)CC(C)C=CCCC=C1C (stereo not shown) [Compound 15, 19,20-dihidro-rapamycin] 102

---

# Assay Protocol: Cytotoxicity assay (CellTiter-Glo, 72 h), SKOV-3
# Format: cell-based, human
# Assay Conditions: human, SKOV-3 cells (ovarian adenocarcinoma), conc 0.0244141 uM; raw replicate data; read-out: SKOV3 viability (%)
# Method: Jurkat cells were cultured in RPMI1640 medium supplemented with 10% foetal bovine serum, penicillin (50 U/ml), streptomycin (50 μg/ml), and Glutamax. SKOV-3 cells were cultured in DMEM medium supplemented with 10% fetal bovine serum, penicillin (50 U/ml), and streptomycin (50 μg/ml). […] Cell viabilities were measured using a CellTiter-Glo luminescent cell viability assay and EnVision multilabel plate reader.
Measurement Type: viability at 72 h, 0.0244141 uM (%)
# unit: % | format: bare number

Before answering, review these 2 worked examples.
COC1CC2CCC(C)C(O)(O2)C(=O)C(=O)N2CCCCC2C(=O)OC(C(C)CC2CCC(O)C(OC)C2)CC(=O)C(C)C=C(C)C(O)CC(=O)C(C)C=C(C)C=CC=CC=C1C (stereo not drawn) | 106
COC1CC2CCC(C)C(O)(O2)C(=O)C(=O)N2CCCCC2C(=O)OC(C(C)CC2CCC(O)C(OC)C2)CCC(C)C=C(C)C(O)C(OC)C(=O)C(C)CC(C)C=CC=CC=C1C (stereo not drawn) | 60

Which viability at 72 h, 0.0244141 uM is reported for this molecule? CO[C@H]1C[C@@H]2CC[C@@H](C)[C@@](O)(O2)C(=O)C(=O)N2CCCC[C@H]2C(=O)O[C@H]([C@H](C)C[C@@H]2CC[C@@H](O)[C@H](OC)C2)CC(=O)[C@H](C)/C=C(\C)[C@@H](O)[C@@H](OC)C(=O)[C@H](C)C[C@H](C)/C=C/C=C/C=C/1C [Compound 1, rapamycin, reference compound] 57.9

---

# Assay Protocol: Cytotoxicity assay (CellTiter-Glo, 72 h), SKOV-3
# Assay type: cell-based, human
# Assay Conditions: human, SKOV-3 cells (ovarian adenocarcinoma), conc 0.000190735 uM; raw replicate data; read-out: SKOV3 viability (%)
Recorded viability at 72 h, 0.000190735 uM for the following molecules
Write the numeric value and follow it with the unit.

Before answering, review these 3 worked examples.
COC1CC2CCC(C)C(O)(O2)C(=O)C(=O)N2CCCCC2C(=O)OC(C(C)CC2CCC(O)C(OC)C2)CC(O)CC(=O)C(C)C=C(C)C(O)CC(=O)C(C)CC(C)C=CC=CC=C1C (centres unmarked) [Compound 13] | 105%
COC1CC2CCC(C)C(O)(O2)C(=O)C(=O)N2CCCCC2C(=O)OC(C(C)CC2CCC(O)C(OC)C2)CCC(C)C=C(C)C(O)C(OC)C(=O)C(C)CC(C)C=CC=CC=C1C (centres unmarked) [Compound 16, 32-desketorapamycin] | 96.2%
CO[C@H]1C[C@@H]2CC[C@@H](C)[C@@](O)(O2)C(=O)C(=O)N2CCCC[C@H]2C(=O)O[C@H]([C@H](C)C[C@@H]2CC[C@@H](O)[C@H](OC)C2)CC(=O)[C@H](C)/C=C(\C)[C@@H](O)CC[C@H](C)/C=C/C=C/C=C/1C [Compound 7] | 101%

Which viability at 72 h, 0.000190735 uM is reported for this molecule? COC1CC2CCC(C)C(O)(O2)C(=O)C(=O)N2CCCCC2C(=O)OC(C(C)CC2CCC(O)C(OC)C2)CC(=O)C(C)C=C(C)C(O)C(OC)C(=O)C(C)CC(C)C=CCCC=C1C (centres unmarked) [Compound 15, 19,20-dihidro-rapamycin] 101%

Which viability at 72 h, 0.000190735 uM is reported for this molecule? COC1CC2CCC(C)C(O)(O2)C(=O)C(=O)N2CCCCC2C(=O)OC(C(C)CC2CCC(O)C(OC)C2)CC(=O)C(C)C=C(C)C(O)CC(=O)C(C)C=C(C)C=CC=CC=C1C (centres unmarked) [Compound 14] 103%
